Target: T1, Ac-VQIINK-NH2
T1 peptide: Ac-VQIINK-NH2
Test: cell-based or functional assay
Overview of recorded IC50 (µM), VQIINK Inhibition (ThT) for various binders
measured-metric: IC50 (µM), VQIINK Inhibition (ThT)

| binder | measured-metric | reported-measurement |
| --- | --- | --- |
| WWIRLRYW | IC50 (µM), VQIINK Inhibition (ThT) | 3.24 |
| ARIRIRW | IC50 (µM), VQIINK Inhibition (ThT) | 2.72 |
| RIWIRYW | IC50 (µM), VQIINK Inhibition (ThT) | 4.87 |
| RIWIRLW | IC50 (µM), VQIINK Inhibition (ThT) | 2.31 |
| WKVWVRYW | IC50 (µM), VQIINK Inhibition (ThT) | 4.93 |
| IWLRLW | IC50 (µM), VQIINK Inhibition (ThT) | 2.29 |
| WRIRLYWR | IC50 (µM), VQIINK Inhibition (ThT) | 2.12 |
| WRIRLWYR | IC50 (µM), VQIINK Inhibition (ThT) | 1.7 |
